test: NCI Yeast Anticancer Drug Screen. Data for the bub3 strain (AID 167); details: S. cerevisiae bub3 mutant strain, at 50.0 µM, hits give high values
This is part of a sample that, as a whole, favours compounds with a hit. Of some 79,000 tested, about 15% had one in any assay.
metric_name: growth inhibition (%)
The figure you give is taken to be in %; do not add the unit.

Past entries and their recorded results:
{"compound": "CC(=O)Oc1ccc(Nn2c3ccccc3c3ccccc32)c(C)c1", "units": "%", "growth inhibition": 41.4}
{"compound": "CC(C)(C)c1ccc(-c2nc3ccc([N+](=O)[O-])cc3c(=O)o2)cc1", "units": "%", "growth inhibition": 16.1}
{"compound": "Cc1nc2c(Cl)cc(Cl)cc2c(Cl)c1CCCl", "units": "%", "growth inhibition": 39.6}

Exercise: Value lookup for growth inhibition; key = NC(=O)c1ccccc1O
Key: 0.6

Exercise: Consider the compound O=S1(=O)c2ccccc2NC(c2ccc3ccccc3c2)CC1c1ccccc1F (configuration not stated) and give its measured growth inhibition.
Key: -18.4

Exercise: # query: growth inhibition of entry CCCC/C=C/C1C=CC(CCCCCCCC(=O)OCC)C(C(=O)OCC)C1 (configuration not stated) (tested in a mixture with another compound)
Key: 2.2

Exercise: Data request, read-out growth inhibition, for Cc1cccc(C)c1NC(=O)Nc1cccc(C#N)c1
Key: -0.55

###

test: NCI Yeast Anticancer Drug Screen. Data for the bub3 strain (AID 167); conditions: S. cerevisiae bub3 mutant strain, at 50.0 µM, hits give high values
About 79,000 compounds went through this panel and 15% of them were active in at least one assay; those are over-represented in the sample as a whole. Calls of active or inactive are those of the source. No stated cut-off is given here; in the data, active means growth inhibition above about 70%; inactive means the rest.
metric_name: growth inhibition

{"molecule": "O=P(O)(O)c1ccccc1Br", "measured_result": "2.3% (inactive)"}

Exercise: Consider the molecule NNc1cc(S(=O)(=O)O)cc(C(=O)O)c1O and give its measured growth inhibition.
Key: 42.1% (inactive)

Exercise: Any idea what its growth inhibition is? The molecule is CC1(c2ccccc2)CC(c2cccc([N+](=O)[O-])c2)=NO1 (configuration not stated)
Key: 28.6% (inactive)

Exercise: Query (molecule): O=C1C(NS(=O)(=O)c2ccccc2)=C(n2cnc3ccccc32)C(=O)c2ccccc21 ; field requested: growth inhibition
Key: 1.65% (inactive)

###

assay: NCI Yeast Anticancer Drug Screen. Data for the bub3 strain (AID 167); conditions: S. cerevisiae bub3 mutant strain, at 50.0 µM, hits give high values
This is part of a sample that, as a whole, favours compounds with a hit. Of some 79,000 tested, about 15% had one in any assay.
metric_name: growth inhibition (%)
Numeric answer only, unit % assumed.

{"molecule": "CCCCCCC(C(=O)O)C(=O)O", "growth inhibition / %": 1.15}
{"molecule": "Cc1[nH]c(=O)[nH]c(=O)c1N", "growth inhibition / %": -2.9}
{"molecule": "O=C(OCc1ccccc1CN1CCOCC1)c1cccc(Cl)c1", "growth inhibition / %": -6.25}
{"molecule": "NC(=O)C(=O)C(c1ccccc1)S(=O)(=O)Cc1ccccc1 (centres undefined)", "growth inhibition / %": -25.4}
{"molecule": "CN=c1ss/c(=N\\C(=S)N(C)C)n1C", "growth inhibition / %": -11.5}

Exercise: Entry CCOC(=O)c1nc2cc(N3CCOCC3)c(F)cc2[nH]c1=O : reported growth inhibition = ?
Key: 28.2

Exercise: Fill in: growth inhibition of O=S(=O)(O)c1cc(O)c2c(N=Nc3c(S(=O)(=O)O)cc4cc(S(=O)(=O)O)cc(N=Nc5c(S(=O)(=O)O)cc6cc(S(=O)(=O)O)cc(O)c6c5O)c4c3O)cc(S(=O)(=O)O)cc2c1 is ___
Key: -7.6

Exercise: Given the molecule O=CNC1CCCCC1c1ccc(C2CCCCC2NC=O)cc1 (centres undefined) , what is its reported growth inhibition?
Key: 6.2

Exercise: Requested read-out: growth inhibition. Entry: CNc1nc(NC)nc(-c2ccccc2)n1
Key: -22.6

###

Test: NCI Yeast Anticancer Drug Screen. Data for the sgs1 mgt1 strain (AID 161);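 note: 0% = growth of cultures given vehicle only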
Settings: S. cerevisiae sgs1 mgt1 strain, at 50.0 µM
Protocol: Growth inhibition of yeast strains with defined genetic alterations is measured as a screen for potential anti-cancer activity. Selected strains with alterations in DNA damage repair or cell cycle control were exposed to compounds and growth inhibition was measured relative to vehicle treated controls. The strain used in this assay is sgs1 mgt1
This is part of a sample that, as a whole, favours compounds with a hit. Of some 79,000 tested, about 15% had one in any assay. Calls of active or inactive are those of the source. Rule as the data show it: active = growth inhibition above about 70%; inactive = the rest.
Respond with a class label; see class 1 (active), class 0 (inactive)

For orientation, consider the following solved cases.
{"compound": "Cc1cc2[nH]c3ccccc3n2c(=O)c1N=Nc1ccccc1", "label_class": "class 0"}
{"compound": "Oc1ccc(-c2csc(Nc3ccccn3)n2)cc1O", "label_class": "class 1"}
{"compound": "N#CCc1c(Cl)ccc(Cl)c1Cl", "label_class": "class 0"}
{"compound": "COc1ccc(C(O)CNC(=O)c2ccccc2)cc1 (stereo not drawn)", "label_class": "class 0"}
{"compound": "NNC(=O)N/N=C1\\C(=O)N(c2ccc(Cl)c(Cl)c2)C(=O)C(=O)C1c1nc2ccccc2s1 (stereo not drawn)", "label_class": "class 0"}
{"compound": "CC(NC(=O)OCC[P+](c1ccccc1)(c1ccccc1)c1ccccc1)C(=O)O (stereo not drawn)", "label_class": "class 0"}

Exercise: Tell me the assay call for CCOC(=O)c1nc2c(Cl)c3ncccc3cc2[nH]c1=O please.
Key: class 0

Exercise: State the result this test recorded for NC(=O)Oc1ccc(Cc2ccccc2)cc1 .
Key: class 0

###

assay: NCI Yeast Anticancer Drug Screen. Data for the rad50 strain (AID 155);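 note: 0% = growth of vehicle-only cultures of the same strain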; conditions: S. cerevisiae rad50 strain growth inhibition; at 50.0 µM; hits give high values
Compounds without any hit were thinned out: in the full panel of roughly 79,000, 15% have a hit.
growth inhibition for assorted compounds
Express it in %; write the number only.

{"compound": "COCOc1ccc(C(=O)C(C)c2ccc(OCOC)cc2OCOC)c(O)c1 (stereo not given)", "growth inhibition [%]": 39.4}
{"compound": "CN(C)CCNC(=O)c1ccc(Cl)c2cc3ccccc3nc12", "growth inhibition [%]": 83.3}

Now, please, on to the next compound.
Exercise: I would be grateful if you could share the reported growth inhibition for O=C(Nc1ccc(Cl)cc1C(F)(F)F)C(=O)Nn1c(=S)[nH]c2ccccc2c1=O .
Key: -5.9

###

assay: NCI Yeast Anticancer Drug Screen. Data for the bub3 strain (AID 167); conditions: S. cerevisiae bub3 mutant strain, at 50.0 µM, hits give high values
The panel holds about 79,000 compounds, 15% with a hit somewhere; the sample as a whole holds those more often.
Parameter growth inhibition: see the listing below.
Give the number; % is assumed, so skip it.

Worked set:
{"compound": "BrC1=C(c2ccccc2)C2CCCCC2C1(Br)c1ccccc1 (configuration not stated)", "units": "%", "growth inhibition": 96.8}
{"compound": "CC(C)=CCC(OC(=O)C=C(C)C)c1cc(O)c2c(O)ccc(O)c2c1O.[Mn] (configuration not stated)", "units": "%", "growth inhibition": 46}
{"compound": "C=C(C)c1ccc2c(c1)C(=O)C[C@@H]1[C@](C)(C#N)CCC[C@]21C", "units": "%", "growth inhibition": 46.9}
{"compound": "NNC(=O)c1oc2ccccc2c1CN(CCO)CCO", "units": "%", "growth inhibition": -1.15}
{"compound": "CN/N=C(/Cc1occc(=O)c1O)C(=O)Nc1ccc(C)c(C)c1", "units": "%", "growth inhibition": 7.35}
{"compound": "COc1ccc2c(CC(=O)O)cc(=O)oc2c1", "units": "%", "growth inhibition": 8.95}

Let us move to another entry and its growth inhibition.
Exercise: So what's the measured growth inhibition for this one? CC(C)CCC[C@@H](C)[C@H]1CC[C@H]2[C@@H]3C[C@@H](O)[C@@]4(O)C[C@@H](O)CC[C@]4(C)[C@H]3CC[C@]12C
Key: -7.25

###

Listed here: items and their measured growth inhibition.
assay: NCI Yeast Anticancer Drug Screen. Data for the cln2 rad14 strain (AID 165);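 note: 0% = growth equal to vehicle treated cultures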; conditions: S. cerevisiae cln2 rad14 strain, at 50.0 µM, hits give high values
Compounds without any hit were thinned out: in the full panel of roughly 79,000, 15% have a hit. Where a SMILES comes first, the peptide text is derived from it. [ ]: non-standard residue; d: D form. The star is where a group is joined. NMeAc5c = CNC1(C(=O)O)CCCC1; Boc = CC(C)(C)OC(=O)*; OBn = c1ccc(CO*)cc1
# number only, unit % dropped from output

{"compound": "NC(=O)/C(N=Nc1ccccc1)=N\\Nc1ccccc1", "units": "%", "growth inhibition": 73.2}

Exercise: What value of measured growth inhibition is listed for CCCc1cc(=O)oc2c3c(c4c(c12)OC(C)(C)C=C4)O[C@H](C)[C@@H](C)C3O (some centres undefined) ?
Key: -1.5

Exercise: Entry CC(=Nc1cc(Cl)cc(Cl)c1)c1ccncc1 : reported growth inhibition = ?
Key: -5.05

Exercise: Please give the measured growth inhibition for this compound: Cc1cc2ccccc2n1CC(=O)N1CCCC1
Key: 0.8

Exercise: Returns the measured growth inhibition for the input compound. Input: Cc1cc(S(=O)(=O)O)c(NC(=O)C(=O)C2C=CCS2(=O)=O)cc1Cl (centres undefined)
Key: 1.8

Exercise: I am curious: what growth inhibition value has been reported for CN(C)CCN1N=Nc2cccc3cccc1c23 ?
Key: 19.2

Exercise: Returns the measured growth inhibition for the input compound. Input: O=C(NC1CCCCC1)C1C(=O)C(=O)N(C2CCCCC2)C1=O (centres undefined)
Key: -8.65

Exercise: So what's the measured growth inhibition for this one? NC1=NC(=O)N(C2CC(O)C(COP(=O)(O)O)O2)C(I)C1 (centres undefined)
Key: -28.6

Exercise: May I ask what growth inhibition has been recorded for N/N=C1\C(=O)N(C2CCCCC2)C(=O)C1C(=O)NC1CCCCC1 (centres undefined) ?
Key: -10.8

Exercise: // growth inhibition lookup, key: Cc1cccc2c1NC(=O)C2=O
Key: 15.7

Exercise: Looking for the measured growth inhibition of Cc1cc2c(nn1)CCc1c-2no[n+]1[O-] , can you help?
Key: 22.5

Exercise: Need growth inhibition of CC(=O)Oc1ccc2c(c1)c1c(OC(C)=O)c(N(C)C(C)=O)cc(OC(C)=O)c1n2C , thanks.
Key: 12.4

Exercise: Could you share which growth inhibition value was measured for Nc1nc(-c2ccccc2)cc(-c2ccc(F)cc2)c1-c1ccc(Cl)cc1 ?
Key: 24.6

Exercise: Form field: reported growth inhibition of CN(C(=O)C(Cc1ccccc1)NC(=O)OC(C)(C)C)C1(C(=O)NC(Cc2ccccc2)C(=O)OCc2ccccc2)CCCC1 (stereo not drawn) (Boc-Phe-[NMeAc5c]-Phe-OBn; configuration not given here)
Key: 11.8

Exercise: growth inhibition lookup needed for CC(C)(C)C1=CC(=N/S(=O)(=O)c2ccccc2)/C(N=[N+]=[N-])=C(Cl)C/1=N\S(=O)(=O)c1ccccc1 , thanks.
Key: 14

Exercise: Given CCn1cc(C(=O)C(=O)N(C)C)c2ccccc21 , state its recorded growth inhibition.
Key: -3.35

Exercise: Would you mind telling me what growth inhibition value was observed for BrC1CC1(c1ccccc1)c1ccccc1 (centres undefined) ?
Key: -6.4

Exercise: If you can, please state the reported growth inhibition value of O=C(Nc1cccc(O)c1)Nc1ccc(Cl)cc1[N+](=O)[O-] .
Key: 97.5

Exercise: Look up growth inhibition for this compound: CC1=NN(C(=O)Cc2ccccc2)C(=O)/C1=C\c1ccco1
Key: -13.8

Exercise: Query: growth inhibition; subject: N#CC(=O)Nc1cccc(Cl)c1
Key: -19.7
